tgt: DAPK3 (DAPK3A) (Homo sapiens)
Construct: purchased in-house DSF kinase panel (SGC-style construct names; the trailing letter is the construct ID)
Sequence (O43293 whole entry): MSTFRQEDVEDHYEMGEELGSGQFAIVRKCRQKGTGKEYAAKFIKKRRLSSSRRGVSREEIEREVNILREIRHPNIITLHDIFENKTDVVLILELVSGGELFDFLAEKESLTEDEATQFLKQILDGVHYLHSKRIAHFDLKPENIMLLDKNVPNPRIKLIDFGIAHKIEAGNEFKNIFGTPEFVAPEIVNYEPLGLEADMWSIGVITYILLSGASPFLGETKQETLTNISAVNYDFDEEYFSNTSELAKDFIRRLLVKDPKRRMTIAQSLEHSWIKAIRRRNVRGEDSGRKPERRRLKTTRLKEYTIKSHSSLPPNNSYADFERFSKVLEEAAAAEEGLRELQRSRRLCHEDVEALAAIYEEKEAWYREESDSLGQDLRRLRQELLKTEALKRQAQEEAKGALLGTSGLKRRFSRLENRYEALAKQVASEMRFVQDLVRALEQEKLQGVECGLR
assayRemarks: DSF Tm panel
Type: binding
conditionDetails: 10 μM compound
Give measured ΔTm at 10 µM for each item. Keep answers brief.
Answers are plain numbers, in °C.

Illustrative cases are given below, each with its answer.
O=C(NCc1cccc(Cl)c1)Nc1ccc2cc1OCCOCCNc1ccn3ncc-2c3n1    1.3
CN1CCN(C(=O)Nc2ccc3cc2OCCOCCNc2ccn4ncc-3c4n2)CC1    2.8
COc1ccc(CNC(=O)Nc2ccc3cc2OCCOCCNc2ccn4ncc-3c4n2)cc1    1.2
COc1cccc(CNC(=O)Nc2ccc3cc2OCCOCCNc2ccn4ncc-3c4n2)c1    1.2
O=C(NCc1ccc(Cl)cc1F)Nc1ccc2cc1OCCOCCNc1ccn3ncc-2c3n1    1.1

Please turn your attention to the following entry.
Problem: Kindly indicate its recorded ΔTm at 10 µM. Item: C[C@H](NC(=O)Nc1ccc2cc1OCCOCCNc1ccn3ncc-2c3n1)c1ccccc1
Result: 1.8
